Listed here are binders together with their documented pKd.
tested_on: MAGI3_2, Q5TCQ9
Sequence (Q5TCQ9 398-503): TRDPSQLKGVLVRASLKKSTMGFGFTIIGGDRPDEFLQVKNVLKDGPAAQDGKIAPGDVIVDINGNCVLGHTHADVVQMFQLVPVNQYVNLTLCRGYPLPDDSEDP
experiment: holdup assay
Parameters: key: below the threshold = too weak to quantify, mostly under pKd 3.1 to 4
condition_notes: plain residues with an end cap or a label only (N-terminal biotin on a linker: ahx)
Response field accepts a number only; no unit should be typed.

Worked examples, 3 binders total:
* QPRTWLQSPV [RTKN, Q9BST9] | 4.53
* TQKFRASTAL [FRMPD1, Q5SYB0] | 4.28
* HTHSYIETHV [CNKSR2, Q8WXI2] | 4.69

Ask: Look up and state reported pKd for QDEKVKESYV [ABCA1, O95477]
Result: 5.14

Reference for the values: paper PMC9482650
